- Test system: LOX IMVI
- assay overview: NCI tumour cell line growth inhibition, 48 h
Calls of active or inactive are those of the source. Cut-off read from the data, not from the text of the source: active = GI50 up to about 1.1 µM and inactive = higher.
# valid calls are label 1 (active), label 0 (inactive); nothing else

Recorded call for Cc1ccc(C)n1-c1ccccc1C1C=Cn2c3c1c(=O)c(OC(C)C)c(OC(C)C)c-3n[nH]c2=O (centres undefined) ?
label 0

Again, but for Cn1cc(C2(C)CC(C)(C)c3c2n(C)c2ccccc32)c2ccccc21 (centres undefined)
label 0

Let us now turn to C=C1C(=O)O[C@H]2[C@H]3O[C@@H](C[C@@H]12)[C@](C)(O)CCCC(C)=CCC[C@H]3C
label 0

Please do the same for Nc1ccn(C2CC3OCC3O2)c(=O)n1 (centres undefined) as well.
label 0

Same question for C=C1CC[C@](C)(O)[C@@]2(C)CC[C@H]3C(=C(C)C)C(=O)C[C@]3(C)C[C@H]12 please.
label 0

What do you get for Fc1ccc(C(OCCN2CCN(CCCc3ccccc3)CC2)c2ccc(F)cc2)cc1 ?
label 0

Another: CC1=C(C(=O)NCc2ccccc2)C(c2ccc(Cl)c(Cl)c2)C(C(=O)NCc2ccccc2)=C(C)N1
label 0

Could you do the same for O=c1c2ccccc2nc(Cc2nc(-c3ccc(Cl)cc3)cs2)n1-c1ccc(Cl)cc1 , please?
label 0

Same read-out for COC1O[C@H]2CCN(C(=O)OCc3ccccc3)[C@H]2[C@H]1OCc1ccccc1 (some centres undefined) ?
label 0

Would you kindly repeat that for COC(=O)Nc1nc2cc(S(=O)(=O)NC(CC(C)C)C(=O)OC)ccc2[nH]1 (centres undefined) ?
label 0

Try the compound COC(=O)[C@@]12C(=O)C=CC(=O)[C@@H]1C1C(=CC2COC(C)=O)O[C@@H]2OC3(CCCCC3)O[C@H]12 (some centres undefined)
label 0

Also N#CCCN(CCC#N)c1ccc(/C=C2\N=C(c3ccccc3)N(c3ccc(F)cc3)C2=O)cc1 , if possible.
label 0

Next compound: O=C(CN1CCCCC1)N1CCc2c([nH]c3ccccc23)C1c1cccnc1 (centres undefined)
label 0

Next entry: Nc1ccc(-c2nc3cc(F)ccc3s2)cc1
label 0

Try the compound O=c1c(Sc2ncccn2)c(Sc2ncccn2)cnn1CCl
label 0

Try this compound too: O=C1NC2(CN3CCC2CC3)C(=O)N1CN(Cc1ccccc1)c1ccccc1 (centres undefined)
label 0

Queued: COc1cc(/C=C2\C(=O)N(c3ccc(Cl)cc3)C(c3ccccc3)S2(=O)=O)cc(OC)c1OC (centres undefined)
label 0

Please do the same for Cc1ccc(S(=O)(=O)NC(=O)C2=C(c3ccccc3)[N-]N(C)c3nc4cccc[n+]4nc32)cc1 as well.
label 0

Follow-up entry: COc1c2c(cc3c1C(O)N1CC[C@]34[C@H]3O[C@H]3[C@H](OC)C[C@@H]14)OCO2 (some centres undefined)
label 0

Again, but for CC1(c2ccc(Cl)cc2)c2ccccc2C(=O)N1CCCN1C(=O)c2ccccc2C1=O (centres undefined)
label 0

# repeat for c1cc(-c2ccc(-c3ccc(C4=NC5CCCCC5N4)cc3)o2)ccc1C1=NC2CCCCC2N1 (centres undefined)
label 0

Query O=C(CCl)N1CCCCC1C1(c2cc3ccccc3[nH]2)OCCO1 (centres undefined) next
label 1

How about this compound: CC(=O)c1c2c(cc3c1CC1(Cc4cc5c(cc4C1=O)CCC5)C3)CCC2 (centres undefined)
label 0

# repeat for CCn1c2ccccc2c2cc(/N=N\c3ccc(C#N)cc3)ccc21
label 0

Now try O=C1NC(=O)C(c2c[nH]c3ccccc23)=C1c1cnc[nH]1 .
label 0

Continue with CC1(c2ccc(Cl)cc2)C=C(c2ccc(Cl)cc2)C(C#N)=C(C(C#N)C#N)N1.CNC (centres undefined)
label 0

What do you have for Cc1cn2c(/C=N/NC(=N)N)c(-c3ccc(Cl)c([N+](=O)[O-])c3)nc2s1 ?
label 1

How about C=CCN1C(N)=C(C#N)C(C#N)(C#N)C1CCC (centres undefined) ?
label 0

Another compound to check: Cc1nc(C)c(C(=O)NNC(=O)Cc2ccccc2)cc1C(=O)NNC(=O)Cc1ccccc1
label 0
